- test system: Fes (UniProt P07332)
- Sequence (P07332 whole entry, looked up): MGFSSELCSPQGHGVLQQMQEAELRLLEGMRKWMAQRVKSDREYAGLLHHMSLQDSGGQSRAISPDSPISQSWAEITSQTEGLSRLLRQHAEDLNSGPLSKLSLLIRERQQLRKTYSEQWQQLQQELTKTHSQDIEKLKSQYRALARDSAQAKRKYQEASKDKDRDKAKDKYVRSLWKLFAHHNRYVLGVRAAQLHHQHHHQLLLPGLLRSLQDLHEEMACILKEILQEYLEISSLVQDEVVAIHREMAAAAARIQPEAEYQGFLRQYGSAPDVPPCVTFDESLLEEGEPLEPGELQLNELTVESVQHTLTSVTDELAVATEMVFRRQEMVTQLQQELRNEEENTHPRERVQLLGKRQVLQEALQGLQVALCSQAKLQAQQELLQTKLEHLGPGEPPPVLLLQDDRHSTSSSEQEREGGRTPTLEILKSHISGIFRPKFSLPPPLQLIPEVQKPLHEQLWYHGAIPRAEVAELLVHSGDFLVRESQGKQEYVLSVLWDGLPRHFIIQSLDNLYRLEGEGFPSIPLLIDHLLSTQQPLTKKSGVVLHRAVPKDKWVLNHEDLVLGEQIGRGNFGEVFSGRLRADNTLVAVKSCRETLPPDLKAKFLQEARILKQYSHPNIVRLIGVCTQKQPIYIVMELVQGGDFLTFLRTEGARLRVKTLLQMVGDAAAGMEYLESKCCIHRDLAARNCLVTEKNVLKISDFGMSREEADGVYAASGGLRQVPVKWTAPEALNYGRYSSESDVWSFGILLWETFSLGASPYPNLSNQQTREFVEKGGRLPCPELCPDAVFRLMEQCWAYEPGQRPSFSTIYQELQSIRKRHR
- assay name: phosphorylation enrichment, bacterial display (enrichment ratio); higher = better substrate or ligand; peptides without Tyr show the background;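 also: 11-residue human phosphosite peptides and single-mutation variants displayed on the E. coli surface, counted by deep sequencing, each peptide's frequency after selection divided by its frequency in the unselected input library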;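 also: frequency after pTyr selection over input frequency; kinase dosed for 20-30% of maximal phosphorylation in three min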
Use 0.9 as the dividing line for phosphorylation enrichment, with the line itself on the label 1 side and lower values as label 0.

Check out these entries, answers already filled in.
primary sequence	group
RAIGYYSATSK [FAM120A_Y328]	label 0
KGIDRYNPENL [EIF3K_Y21]	label 0
RLSVDYSKKSK [TUBA3E_Y161]	label 0
GRTPLYMDRQG [AGXT_Y194_G190R]	label 0
SDGGCYEQLFV [MC4R_Y41]	label 1

## Input Threshold query (phosphorylation enrichment >= 0.9) on QTPVLYAMLYH [MPZ_Y220_D224Y]
## Output label 1

## Input Check this sequence for phosphorylation enrichment at or above 0.9: TVSTRYTQPQP [SARG_Y259]
## Output label 0

## Input Quick check: does AVLQPYIFVAT [CFTR_Y1014] have phosphorylation enrichment greater than or equal to 0.9?
## Output label 1

## Input Form field: phosphorylation enrichment at least 0.9? Entry: TVHPGYGFLSE [PCCA_Y143_A138T]
## Output label 0

## Input For this sequence, is measured phosphorylation enrichment 0.9 or higher? DTERIYDDDFF [UBA1_Y560]
## Output label 1

## Input Tell me whether phosphorylation enrichment is at least 0.9 here: LPEHPYHSRPR [NDUFA8_Y142_N140H]
## Output label 1

## Input Is the recorded value of phosphorylation enrichment equal to or greater than 0.9 for this sequence? PLGVLYKVKVY [PTS_Y128_V124L]
## Output label 1

## Input State whether the measured phosphorylation enrichment reaches 0.9, counting equality as reaching it, for ASGKFYAMKIL [AKT3_Y174_YF]
## Output label 1

## Input Please check the record QLYGPYLRIHA [BSCL2_Y213_A212P] and state if its phosphorylation enrichment is at or above 0.9.
## Output label 1
